Origin of the recorded values: PubChem BioAssay AID1347145

- test_system: N-terminal Xaa-Pro-Lys N-methyltransferase 1 (Homo sapiens)
- assay_details: qHTS Assay for Inhibitors of N-terminal methyltransferase 1 (NTMT1): MTaseGlo Assay Confirmatory Screen, Round 1
- study_conditions: Recombinant NTMT1, MTase-Glo SAH luminescence; series mostly up to 57.1 µM
Inconclusive results are not listed. Calls of active or inactive are those of the source. The call rests on the fitted dose curve; in most records, active means well fitted inhibition curve with a large enough effect; inconclusive means small, poorly fitted or top-dose-only effect; inactive means no such curve, though single readings can be large or run the other way.
measurement_type: outcome

Please review the entries below; each comes with its answer.
Nc1ncnc2c1nc(N1CCCCC1)n2[C@@H]1O[C@@H]2COP(=O)(O)O[C@H]2[C@H]1O ... inactive
CCNc1nc(N2CCCN(C)CC2)nc2cc(OC)c(OC)cc12 ... inactive
COc1cc2c(NC3CCN(C)CC3)nc(N3CCCCC3)nc2cc1OCCOCCN1CCCC1 ... inactive
COCCCCOc1cc2nc(N3CCCN(C)CC3)nc(NC3CCN(C)CC3)c2cc1OC ... inactive
CNc1ncnc2c1ncn2[C@H]1C[C@H](O)[C@@H](CO)O1 ... inactive
COc1cc2c(NC3CCN(C(C)C)CC3)nc(N3CCCN(C(C)C)CC3)nc2cc1OCCCN1CCCCC1 ... inactive
COc1cc2c(NC3CCN(C)CC3)nc(N3CCCN(C)CC3)nc2cc1OCCCCCN(C)C ... inactive
Nc1ncnc2c1ncn2[C@@H]1O[C@H](CO)[C@@H](O)[C@H]1O ... inactive
CCN1CCN(c2nc(NC3CC3)c3cc(OC)c(OC)cc3n2)CC1 ... inactive

Okay, next one:
The molecule CCCCC#Cc1nc(NC)c2ncn([C@@H]3O[C@H](CO)[C@@H](O)C3O)c2n1 (stereo not given in full) showed outcome equal to inactive
